From: patent US20240174618A1

# key: entry, value: Post-emergence efficacy against KCHSC in %
tested on: Kochia scoparia (KCHSC); assay: E. Herbicidal post-emergence efficacy, KCHSC; format: in vivo; settings: application rate 320 g/ha
Please give a number only; it is taken to be in %.

// below: answered molecules
1) O=S(=O)(CCC(F)(F)F)Oc1c(F)cccc1Oc1ncc(Br)cn1 = 100
2) Cc1cccc(Oc2ncc(Cl)cn2)c1OS(=O)(=O)CCC(F)=C(F)F = 100
3) O=S(=O)(CCCC(F)(F)C(F)(F)F)Oc1c(F)cccc1Oc1ncc(Cl)cn1 = 90
4) O=S(=O)(CCC(F)=C(F)F)Oc1c(F)cccc1Oc1ncc(Cl)cn1 = 100
5) O=S(=O)(CCCC(F)(F)F)Oc1c(Cl)cccc1Oc1ncc(Cl)cn1 = 100

Entry O=S(=O)(CC1CC(F)(F)C1)Oc1c(F)cccc1Oc1ncc(Cl)cn1 , Post-emergence efficacy against KCHSC in % reported as 90
